Hey, just so you know, these numbers are from the supplement of paper PMC6757056.

B1: library; a variant is named by its letters at N, in order (parent)
chain: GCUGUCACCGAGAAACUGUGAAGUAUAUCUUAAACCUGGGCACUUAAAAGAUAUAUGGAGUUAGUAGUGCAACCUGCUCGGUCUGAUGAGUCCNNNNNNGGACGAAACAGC

# Variants of: B1
# Assay info: normalized RNA/DNA level with ligand (relative to sTRSVctl = 100) (log10 (% of sTRSVctl)); HEK293T; ligand: cyclic di-GMP (c-di-GMP-II aptamer); ligand concentration (+) RNA-Seq: 1 mM; higher = less ribozyme self-cleavage, higher mRNA level
# Test conditions: reporter: mCherry (pCS4076), ligand present: yes
Readout label: normalized RNA/DNA level with ligand (log10)

Before answering, review these 5 worked examples.
UAAGAU: 1.79
GCGAUA: 1.61
CAGUUC: 1.82
UGUUCU: 1.88
GCCUUA: 1.82

Field normalized RNA/DNA level with ligand (log10) (entry `AAGCGU` ) reads 1.73

Field normalized RNA/DNA level with ligand (log10) (entry `CAUGUU` ) reads 1.88

Field normalized RNA/DNA level with ligand (log10) (entry `ACUCUC` ) reads 1.86

Field normalized RNA/DNA level with ligand (log10) (entry `GCGGUG` ) reads 1.79

Field normalized RNA/DNA level with ligand (log10) (entry `GAGGCU` ) reads 1.87

Field normalized RNA/DNA level with ligand (log10) (entry `GUUGAU` ) reads 1.76
